B1: POU domain, class 2, transcription factor 3, residues 186 to 260; numbered along this chain, Q9UKI9 (parent)
chain: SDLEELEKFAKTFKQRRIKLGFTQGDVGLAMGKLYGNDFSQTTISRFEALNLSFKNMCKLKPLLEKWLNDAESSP

- Variants of: B1
- Test Summary: abundance fitness (aPCA) (normalised: wild type 0, dead -1); higher = more abundant; growth selection in yeast, the domain comes from the species named
- Condition Summary: Homo sapiens
Assign Yes to entries whose abundance fitness meets or exceeds -0.02; assign No to the rest.

- Mutant Code: "M57N"
  Assigned Category: "No"
- Mutant Code: "L29H"
  Assigned Category: "No"
- Mutant Code: "E72Y"
  Assigned Category: "No"
- Mutant Code: "L52C"
  Assigned Category: "No"
- Mutant Code: "F54N"
  Assigned Category: "No"
- Mutant Code: "S74H"
  Assigned Category: "Yes"
- Mutant Code: "E65H"
  Assigned Category: "No"
- Mutant Code: "E5Q"
  Assigned Category: "Yes"
- Mutant Code: "K61H"
  Assigned Category: "No"
- Mutant Code: "K66T"
  Assigned Category: "Yes"
- Mutant Code: "S53W"
  Assigned Category: "No"
- Mutant Code: "W67C"
  Assigned Category: "No"
- Mutant Code: "S74K"
  Assigned Category: "Yes"
- Mutant Code: "A30G"
  Assigned Category: "No"
- Mutant Code: "N56S"
  Assigned Category: "No"
- Mutant Code: "F54C"
  Assigned Category: "No"
- Mutant Code: "E5S"
  Assigned Category: "Yes"
- Mutant Code: "L63H"
  Assigned Category: "Yes"
- Mutant Code: "I18V"
  Assigned Category: "No"
- Mutant Code: "R46N"
  Assigned Category: "Yes"
- Mutant Code: "A71Q"
  Assigned Category: "Yes"
- Mutant Code: "D70P"
  Assigned Category: "No"
- Mutant Code: "S73D"
  Assigned Category: "Yes"
- Mutant Code: "L60Q"
  Assigned Category: "No"
- Mutant Code: "D38N"
  Assigned Category: "Yes"
- Mutant Code: "P62K"
  Assigned Category: "No"
- Mutant Code: "K59T"
  Assigned Category: "Yes"
- Mutant Code: "L52D"
  Assigned Category: "No"
- Mutant Code: "K19A"
  Assigned Category: "No"
- Mutant Code: "I44G"
  Assigned Category: "No"
- Mutant Code: "W67A"
  Assigned Category: "No"
- Mutant Code: "L68Q"
  Assigned Category: "No"
- Mutant Code: "A71R"
  Assigned Category: "No"
- Mutant Code: "S73A"
  Assigned Category: "Yes"
- Mutant Code: "K66P"
  Assigned Category: "No"
- Mutant Code: "C58M"
  Assigned Category: "Yes"

// provenance: the Human Domainome abundance scans (Beltran et al. 2025)
